- TARGET ENTITY: human 5-hydroxytryptamine receptor 1A (5-HT1A) (Homo sapiens)
- Sequence (P08908 1-422): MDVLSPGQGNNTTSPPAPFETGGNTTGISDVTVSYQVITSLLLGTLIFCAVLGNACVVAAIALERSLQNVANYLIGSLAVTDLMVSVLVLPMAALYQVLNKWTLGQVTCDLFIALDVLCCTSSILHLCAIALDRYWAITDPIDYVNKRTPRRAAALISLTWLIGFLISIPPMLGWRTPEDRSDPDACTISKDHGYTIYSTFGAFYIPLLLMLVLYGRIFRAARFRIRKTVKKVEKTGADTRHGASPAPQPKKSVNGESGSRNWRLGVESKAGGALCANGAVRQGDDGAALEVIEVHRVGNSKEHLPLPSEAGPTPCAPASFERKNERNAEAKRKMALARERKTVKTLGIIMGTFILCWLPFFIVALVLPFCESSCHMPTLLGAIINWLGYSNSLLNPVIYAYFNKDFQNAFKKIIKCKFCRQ
// reported pIC50 for each item listed
Worth noting: pIC50 values are minus log10 of concentrations stated in mol/L.

// worked examples, pIC50 included
MOLECULE	READOUT NUMBER
CSc1ccc2[nH]cc(C[C@H]3CCCN3C)c2c1 [(R) I-1]	8.52
[2H]C([2H])(c1c[nH]c2ccc(OCCCCN3C(=O)c4ccccc4C3=O)cc12)[C@H]1CCCN1C([2H])([2H])[2H] [(R) I-244]	7.82
COCCN1CCC[C@@H]1Cc1c[nH]c2ccc(OC)cc12 [(R) I-98]	8.30
[2H]C([2H])(c1c[nH]c2ccc(OCCCCCN3C(=O)C4CCCCC4C3=O)cc12)[C@H]1CCCN1C([2H])([2H])[2H] (mixture of isomers) [Rac (R) I-248]	8.08

In the following, a different molecule is considered.
Lab note: need pIC50 with human 5-hydroxytryptamine receptor 1A (5-HT1A) (Homo sapiens) for entry [2H]C([2H])(c1c[nH]c2ccc(OCCCCCN3C(=O)c4ccccc4C3=O)cc12)[C@H]1CCCN1C([2H])([2H])[2H] [(R) I-245] , please look it up.
8.30

----------
- ASSAY TEXT: Liver microsomes stability, human
- Type: in vitro ADME
- STUDY CONDITIONS: Human liver microsomes, 2 μM, 0.5 mg/mL, NADPH
RECORDED ENDPOINT: microsomal CLint at 2 μM

Please look up its microsomal CLint at 2 μM: CSc1ccc2[nH]cc(C[C@H]3CCCN3C)c2c1 [(R) I-1]
57.7 µL/min/mg

----------
- ASSAY TEXT: Liver microsomes stability, human
- Type: in vitro ADME
- STUDY CONDITIONS: human liver microsomes; read-out: Scaled-up CLint
// reported CLint scaled at 2 μM for each item listed
Write down the numeric answer in mL/min/kg and omit the unit.

MOLECULE	MEASURE UNIT	CLint scaled at 2 μM
COCCN1CCC[C@@H]1Cc1c[nH]c2ccc(OC)cc12 [(R) I-98]	mL/min/kg	27
[2H]C([2H])(c1c[nH]c2ccc(OCCCCN3C(=O)c4ccccc4C3=O)cc12)[C@H]1CCCN1C([2H])([2H])[2H] [(R) I-244]	mL/min/kg	290

In the following, a different molecule is considered.
Please look up its CLint scaled at 2 μM: [2H]C([2H])(c1c[nH]c2ccc(OCCCCCN3C(=O)c4ccccc4C3=O)cc12)[C@H]1CCCN1C([2H])([2H])[2H] [(R) I-245]
145
